# Tested on: LK-2
# test_details: relative viability (nuclei count vs DMSO), 5 days (fraction); higher = more cells survive
# condition_info: first compound 0.002 µM
value_type: relative viability
Give your answer as a number; write no unit.

Some compounds with recorded relative viability:
- compound: "CC(=O)O[C@@]12CO[C@@H]1C[C@H](O)[C@@]1(C)C(=O)[C@H](O)C3=C(C)[C@@H](OC(=O)[C@H](O)[C@@H](NC(=O)OC(C)(C)C)c4ccccc4)C[C@@](O)([C@@H](OC(=O)c4ccccc4)[C@H]21)C3(C)C [Docetaxel] + CC(=O)Nc1cccc(-n2c(=O)n(C3CC3)c(=O)c3c(Nc4ccc(I)cc4F)n(C)c(=O)c(C)c32)c1 [Trametinib] (partner 0.02 µM)"
  relative viability: 0.304
- compound: "CC(=O)O[C@@]12CO[C@@H]1C[C@H](O)[C@@]1(C)C(=O)[C@H](O)C3=C(C)[C@@H](OC(=O)[C@H](O)[C@@H](NC(=O)OC(C)(C)C)c4ccccc4)C[C@@](O)([C@@H](OC(=O)c4ccccc4)[C@H]21)C3(C)C [Docetaxel] + CCNC(=O)c1noc(-c2cc(C(C)C)c(O)cc2O)c1-c1ccc(CN2CCOCC2)cc1 [Luminespib] (partner 0.01 µM)"
  relative viability: 0.157
- compound: "CC(=O)O[C@@]12CO[C@@H]1C[C@H](O)[C@@]1(C)C(=O)[C@H](O)C3=C(C)[C@@H](OC(=O)[C@H](O)[C@@H](NC(=O)OC(C)(C)C)c4ccccc4)C[C@@](O)([C@@H](OC(=O)c4ccccc4)[C@H]21)C3(C)C [Docetaxel] + O=C(c1cc(Cc2n[nH]c(=O)c3ccccc23)ccc1F)N1CCN(C(=O)C2CC2)CC1 [Olaparib] (partner 8 µM)"
  relative viability: 0.156
- compound: "CC(=O)O[C@@]12CO[C@@H]1C[C@H](O)[C@@]1(C)C(=O)[C@H](O)C3=C(C)[C@@H](OC(=O)[C@H](O)[C@@H](NC(=O)OC(C)(C)C)c4ccccc4)C[C@@](O)([C@@H](OC(=O)c4ccccc4)[C@H]21)C3(C)C [Docetaxel] + Cc1cc(Nc2cc(N3CCN(C)CC3)nc(Sc3ccc(NC(=O)C4CC4)cc3)n2)n[nH]1 [Tozasertib] (partner 0.1 µM)"
  relative viability: 0.157

Pending compound:
Write down relative viability measured for item CC(=O)O[C@@]12CO[C@@H]1C[C@H](O)[C@@]1(C)C(=O)[C@H](O)C3=C(C)[C@@H](OC(=O)[C@H](O)[C@@H](NC(=O)OC(C)(C)C)c4ccccc4)C[C@@](O)([C@@H](OC(=O)c4ccccc4)[C@H]21)C3(C)C [Docetaxel] + Nc1ncn([C@H]2C[C@H](O)[C@@H](CO)O2)c(=O)n1 [Decitabine] (partner 2 µM) 0.115

###

# Tested on: NCI-H2347
# test_details: relative viability (nuclei count vs DMSO), 5 days (fraction); higher = more cells survive
# condition_info: first compound 0.000632 µM
value_type: relative viability
Give your answer as a number; write no unit.

Some solved cases for reference:
- molecule: "CC(=O)O[C@@]12CO[C@@H]1C[C@H](O)[C@@]1(C)C(=O)[C@H](O)C3=C(C)[C@@H](OC(=O)[C@H](O)[C@@H](NC(=O)OC(C)(C)C)c4ccccc4)C[C@@](O)([C@@H](OC(=O)c4ccccc4)[C@H]21)C3(C)C [Docetaxel] + Cc1nc(Nc2ncc(C(=O)Nc3c(C)cccc3Cl)s2)cc(N2CCN(CCO)CC2)n1 [Dasatinib] (partner 0.075 µM)"
  value_reported: 0.326
- molecule: "CC(=O)O[C@@]12CO[C@@H]1C[C@H](O)[C@@]1(C)C(=O)[C@H](O)C3=C(C)[C@@H](OC(=O)[C@H](O)[C@@H](NC(=O)OC(C)(C)C)c4ccccc4)C[C@@](O)([C@@H](OC(=O)c4ccccc4)[C@H]21)C3(C)C [Docetaxel] + COc1cc2c(Oc3ccc(NC(=O)C4(C(=O)Nc5ccc(F)cc5)CC4)cc3F)ccnc2cc1OCCCN1CCOCC1 [Foretinib] (partner 0.25 µM)"
  value_reported: 0.815

// below: relative viability requested for another molecule
Give relative viability for CC(=O)O[C@@]12CO[C@@H]1C[C@H](O)[C@@]1(C)C(=O)[C@H](O)C3=C(C)[C@@H](OC(=O)[C@H](O)[C@@H](NC(=O)OC(C)(C)C)c4ccccc4)C[C@@](O)([C@@H](OC(=O)c4ccccc4)[C@H]21)C3(C)C [Docetaxel] + CC(=O)c1c(C)c2cnc(Nc3ccc(N4CCNCC4)cn3)nc2n(C2CCCC2)c1=O [Palbociclib] (partner 0.5 µM) 0.429

###

Examples of compounds with documented relative viability follow.
# Test system: EPLC-272H
# test_details: relative viability (nuclei count vs DMSO), 5 days (fraction); higher = more cells survive
# condition_info: first compound 0.1581 µM

Observe how each entry below is paired with its result.
- compound: "Nc1ccn([C@@H]2O[C@H](CO)[C@@H](O)[C@@H]2O)c(=O)n1 [Cytarabine] + CCNC(=O)c1noc(-c2cc(C(C)C)c(O)cc2O)c1-c1ccc(CN2CCOCC2)cc1 [Luminespib] (partner 0.01 µM)"
  relative viability: 0.228
- compound: "COc1cc2nccc(Oc3ccc(NC(=O)Nc4cc(C)on4)c(Cl)c3)c2cc1OC [Tivozanib] + NC(=O)Nc1cc(-c2cccc(F)c2)sc1C(=O)N[C@H]1CCCNC1 [AZD7762] (partner 0.2 µM)"
  relative viability: 0.203
- compound: "COc1cc2nccc(Oc3ccc(NC(=O)Nc4cc(C)on4)c(Cl)c3)c2cc1OC [Tivozanib] + CS(=O)(=O)CCNCc1ccc(-c2ccc3ncnc(Nc4ccc(OCc5cccc(F)c5)c(Cl)c4)c3c2)o1 [Lapatinib] (partner 2 µM)"
  relative viability: 0.806
- compound: "Nc1ccn([C@@H]2O[C@H](CO)[C@@H](O)[C@@H]2O)c(=O)n1 [Cytarabine] + C[C@@H](Oc1cc(-c2cnn(C3CCNCC3)c2)cnc1N)c1c(Cl)ccc(F)c1Cl [Crizotinib] (partner 1 µM)"
  relative viability: 0.326
- compound: "Nc1ccn([C@@H]2O[C@H](CO)[C@@H](O)[C@@H]2O)c(=O)n1 [Cytarabine] + COc1cccc2cc(-c3nc([C@H]4CC[C@H](C(=O)O)CC4)n4ncnc(N)c34)[nH]c12 [OSI-027] (partner 0.5 µM)"
  relative viability: 0.189

Note relative viability for the compound shown: Nc1ccn([C@@H]2O[C@H](CO)[C@@H](O)[C@@H]2O)c(=O)n1 [Cytarabine] + O=C(c1cc(Cc2n[nH]c(=O)c3ccccc23)ccc1F)N1CCN(C(=O)C2CC2)CC1 [Olaparib] (partner 8 µM) 0.244

Output measured relative viability for this item: COc1cc2nccc(Oc3ccc(NC(=O)Nc4cc(C)on4)c(Cl)c3)c2cc1OC [Tivozanib] + CC1(C)CCC(c2ccc(Cl)cc2)=C(CN2CCN(c3ccc(C(=O)NS(=O)(=O)c4ccc(N[C@H](CCN5CCOCC5)CSc5ccccc5)c(S(=O)(=O)C(F)(F)F)c4)cc3)CC2)C1 [Navitoclax] (partner 0.5 µM) 0.967

Specify measured relative viability for COc1cc2nccc(Oc3ccc(NC(=O)Nc4cc(C)on4)c(Cl)c3)c2cc1OC [Tivozanib] + Cc1nc(NC(=O)N2CCC[C@H]2C(N)=O)sc1-c1ccnc(C(C)(C)C(F)(F)F)c1 [Alpelisib] (partner 2 µM) . 0.723

Please look at this compound and report its relative viability: Nc1ccn([C@@H]2O[C@H](CO)[C@@H](O)[C@@H]2O)c(=O)n1 [Cytarabine] + COc1cc2c(Oc3ccc(NC(=O)C4(C(=O)Nc5ccc(F)cc5)CC4)cc3F)ccnc2cc1OCCCN1CCOCC1 [Foretinib] (partner 0.25 µM) 0.196

###

# Test system: HARA
# test_details: relative viability (nuclei count vs DMSO), 5 days (fraction); higher = more cells survive
# condition_info: first compound 0.08 µM
value_type: relative viability
Give the figure by itself; no unit, no explanation.

Examples from the recorded data:
- compound: "Cc1cnc(-c2cnc(NCCNc3ccc(C#N)cn3)nc2-c2ccc(Cl)cc2Cl)[nH]1 + Cc1nc(Nc2ncc(C(=O)Nc3c(C)cccc3Cl)s2)cc(N2CCN(CCO)CC2)n1 [Dasatinib] (partner 0.075 µM)"
  tested_target: "HARA"
  relative viability: 0.223
- compound: "Cc1cnc(-c2cnc(NCCNc3ccc(C#N)cn3)nc2-c2ccc(Cl)cc2Cl)[nH]1 + Cc1nc(NC(=O)N2CCC[C@H]2C(N)=O)sc1-c1ccnc(C(C)(C)C(F)(F)F)c1 [Alpelisib] (partner 2 µM)"
  tested_target: "HARA"
  relative viability: 0.994
- compound: "O=c1[nH]c2ccccc2n1C1CCN(CCCC(c2ccc(F)cc2)c2ccc(F)cc2)CC1 [Pimozide] + C[C@@H](Oc1cc(-c2cnn(C3CCNCC3)c2)cnc1N)c1c(Cl)ccc(F)c1Cl [Crizotinib] (partner 1 µM)"
  tested_target: "HARA"
  relative viability: 0.991

Provide only the value of recorded relative viability for O=c1[nH]c2ccccc2n1C1CCN(CCCC(c2ccc(F)cc2)c2ccc(F)cc2)CC1 [Pimozide] + O=C(CCCCCCC(=O)Nc1ccccc1)NO [Vorinostat] (partner 1 µM) 0.433

// Input: O=c1[nH]c2ccccc2n1C1CCN(CCCC(c2ccc(F)cc2)c2ccc(F)cc2)CC1 [Pimozide] + Nc1ncn([C@H]2C[C@H](O)[C@@H](CO)O2)c(=O)n1 [Decitabine] (partner 2 µM) . Output its relative viability only. 0.535

Respond only with relative viability recorded for O=c1[nH]c2ccccc2n1C1CCN(CCCC(c2ccc(F)cc2)c2ccc(F)cc2)CC1 [Pimozide] + CC1(C)CCC(c2ccc(Cl)cc2)=C(CN2CCN(c3ccc(C(=O)NS(=O)(=O)c4ccc(N[C@H](CCN5CCOCC5)CSc5ccccc5)c(S(=O)(=O)C(F)(F)F)c4)cc3)CC2)C1 [Navitoclax] (partner 0.5 µM) 1.11

Give the reported value of relative viability for this record: O=c1[nH]c2ccccc2n1C1CCN(CCCC(c2ccc(F)cc2)c2ccc(F)cc2)CC1 [Pimozide] + CC(=O)c1c(C)c2cnc(Nc3ccc(N4CCNCC4)cn3)nc2n(C2CCCC2)c1=O [Palbociclib] (partner 0.5 µM) 0.278

Provide one value: measured relative viability of Cc1cnc(-c2cnc(NCCNc3ccc(C#N)cn3)nc2-c2ccc(Cl)cc2Cl)[nH]1 + COc1cccc2cc(-c3nc([C@H]4CC[C@H](C(=O)O)CC4)n4ncnc(N)c34)[nH]c12 [OSI-027] (partner 0.5 µM) 0.554

Give relative viability for the following compound: O=c1[nH]c2ccccc2n1C1CCN(CCCC(c2ccc(F)cc2)c2ccc(F)cc2)CC1 [Pimozide] + C[C@]1(O)C[C@@H](c2nc(-c3ccc4ccc(-c5ccccc5)nc4c3)c3c(N)nccn32)C1 [Linsitinib] (partner 1 µM) 0.944

Data provenance is the supplement of paper PMC10307832.
